Recorded activation, one value per entry.
ASSAY DETAILS: SMARCA2 (BRM) function activators, primary screen, cell-based, luminescence, high throughput (AID 652017);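 also: 0% = vehicle wells and 100% = reference activator wells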
PROTOCOL CONDITIONS: MG213 cells, MMTV-luciferase reporter, dexamethasone, overnight; at 9.1 µM; stronger effect = higher value
Among all 370,000 compounds or so, about 3,800 (1%) were called active. For the sample, actives were picked, then their nearest neighbours and some compounds at random.

COMPOUND	activation, %
O=C(Cc1ccc(Br)cc1)NCCN1CCOCC1	5.26
c1ccc2cc3c(NCCN4CCOCC4)ccnc3cc2c1	15.8
C=CCn1c(SCC(=O)/C(C#N)=C(\C)N)nc2sc(C)c(C)c2c1=O	-1.26
COc1cc(OC)cc(-c2cc3ccc(F)cc3cn2)c1	7.74
COc1ccc(Sc2ccc(NC(=O)c3cccc(Cl)c3)cc2C#N)cc1	-0.62
COc1cccc(CNC(=O)C2CCCN(c3nc4ccccc4o3)C2)c1OC (configuration not stated)	-3.99
CSc1ccc(CNCCN2CCOCC2)cc1	-0.08
COc1cccc(-c2nc3cc(C)ccc3o2)c1	7.97
Cc1cc(=O)[nH]c(SCC(=O)Nc2ccc(Cl)cc2C)n1	-2.94
Cc1ccc(CN2CCCCC(NC(=O)C3CCCCC3)C2=O)cc1 (configuration not stated)	-2.16
COCCCNC(=O)C[C@H]1C[C@@]2(C(=O)OC)C(=C[C@H](C(C)(C)C)O[C@@H]2C)N(Cc2ccc(Cl)cc2Cl)C1=O	-4
CN(C)CCNC(=O)C(C(=O)c1ccccc1)n1ccccc1=O (configuration not stated)	2.29
